// data source = ChEMBL document CHEMBL4024771

assay_details: Intrinsic clearance in human liver microsomes assessed per mg protein at 1 uM preincubated for 10 mins followed by NADPH addition measured after 45 mins by LC-MS/MS analysis
Format: ADME, microsome
condition_context: liver microsomes, read-out: CLH
test_readout: microsomal CLint at 1 µM (µL/min/mg)
Enter your answer as a number in µL/min/mg; do not include the unit.

CCC(OC)c1cc(Cl)c2c(c1Cl)C(=O)N(Cc1c(C)cc(C)[nH]c1=O)CC2 (single isomer, unassigned; (-)) :: 119

Output measured microsomal CLint at 1 µM for this item: Cc1cc(C)c(CN2CCc3c(Cl)cc([C@@H](CO)[C@H]4CCCO4)c(Cl)c3C2=O)c(=O)[nH]1 43

Output measured microsomal CLint at 1 µM for this item: COC(c1cc(Cl)c2c(c1Cl)C(=O)N(Cc1c(C)cc(C)[nH]c1=O)CC2)C1CCOC1 (single isomer, unassigned; (-)) 136

Output measured microsomal CLint at 1 µM for this item: Cc1cc(C)c(CN2CCc3c(Cl)cc(C(CO)C4CCOC4)c(Cl)c3C2=O)c(=O)[nH]1 (stereo in doubt) 20

Output measured microsomal CLint at 1 µM for this item: COC(c1cc(Cl)c2c(c1Cl)C(=O)N(Cc1c(C)cc(C)[nH]c1=O)CC2)C1CCOCC1 (single isomer, unassigned; (-)) 130

Output measured microsomal CLint at 1 µM for this item: CCC(CO)c1cc(Cl)c2c(c1Cl)C(=O)N(Cc1c(C)cc(C)[nH]c1=O)CC2 (stereo in doubt; (-)-5b) 67.6

Output measured microsomal CLint at 1 µM for this item: COc1cc(C)[nH]c(=O)c1CN1CCc2c(Cl)cc([C@H](OC)C3COC3)c(Cl)c2C1=O 39

Output measured microsomal CLint at 1 µM for this item: COC(c1cc(Cl)c2c(c1Cl)C(=O)N(Cc1c(C)cc(C)[nH]c1=O)CC2)C1CCN(C(C)=O)CC1 (single isomer, unassigned; (-)) 50.3

Output measured microsomal CLint at 1 µM for this item: COc1cc(C)[nH]c(=O)c1CN1CCc2c(Cl)cc([C@@H](OC)C3COC3)c(Cl)c2C1=O 17

Output measured microsomal CLint at 1 µM for this item: Cc1cc(C)c(CN2CCc3c(Cl)cc([C@@H](CO)[C@@H]4CCCO4)c(Cl)c3C2=O)c(=O)[nH]1 70.3

Output measured microsomal CLint at 1 µM for this item: COC(c1cc(Cl)c2c(c1Cl)C(=O)N(Cc1c(C)cc(C)[nH]c1=O)CC2)C1CCN(C2COC2)CC1 (single isomer, unassigned; (-)) 78.3

Output measured microsomal CLint at 1 µM for this item: Cc1cc(C)c(CN2CCc3c(Cl)cc([C@H](C)CO)c(Cl)c3C2=O)c(=O)[nH]1 15.8

Output measured microsomal CLint at 1 µM for this item: Cc1cc(C)c(CN2CCc3c(Cl)cc([C@@H](CO)[C@@H]4CCOC4)c(Cl)c3C2=O)c(=O)[nH]1 25.3
